Target: T1, Gadd45β/MKK7 complex (biotin-hGadd45β with coated GST-MKK7, ELISA format) (human) (UniProt O75293)
T1 sequence (biotinylated (sites not stated), looked up) 1: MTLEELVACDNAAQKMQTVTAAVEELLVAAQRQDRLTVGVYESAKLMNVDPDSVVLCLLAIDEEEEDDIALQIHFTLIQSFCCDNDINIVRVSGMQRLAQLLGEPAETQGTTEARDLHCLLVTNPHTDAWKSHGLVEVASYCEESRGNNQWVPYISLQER
T1 sequence (biotinylated (sites not stated), looked up) 2: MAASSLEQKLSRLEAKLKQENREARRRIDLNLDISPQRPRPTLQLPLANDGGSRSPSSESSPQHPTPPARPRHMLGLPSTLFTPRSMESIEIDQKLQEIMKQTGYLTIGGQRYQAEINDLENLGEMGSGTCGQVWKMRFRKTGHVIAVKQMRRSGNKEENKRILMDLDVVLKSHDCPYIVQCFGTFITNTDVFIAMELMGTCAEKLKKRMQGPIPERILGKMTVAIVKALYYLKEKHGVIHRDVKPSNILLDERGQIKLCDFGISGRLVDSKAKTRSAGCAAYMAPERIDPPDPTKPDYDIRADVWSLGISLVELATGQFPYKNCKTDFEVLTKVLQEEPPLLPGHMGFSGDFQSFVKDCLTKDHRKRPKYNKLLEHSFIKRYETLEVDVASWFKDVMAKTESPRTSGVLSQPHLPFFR
Test: competition ELISA; coated GST-MKK7, biotin-hGadd45β; single dose
* marks the point of attachment. Cbz = O=C(OCc1ccccc1)*
property.measured: % Inhibition of Gadd45β-MKK7 binding (%)

>  <binder>
Ac-AERF-NH2 [Ac-AERF-NH2]

>  <property.measured>
% Inhibition of Gadd45β-MKK7 binding

>  <result>
7

$$$$
>  <binder>
Ac-YDHQK(Cbz)-NH2 (SMILES CC(=O)N[C@@H](Cc1ccc(O)cc1)C(=O)N[C@@H](CC(=O)O)C(=O)N[C@@H](Cc1c[nH]cn1)C(=O)N[C@@H](CCC(N)=O)C(=O)N[C@@H](CCCCNC(=O)OCc1ccccc1)C(N)=O) [Ac-YDHQLys(Z)-NH2]

>  <property.measured>
% Inhibition of Gadd45β-MKK7 binding

>  <result>
2

$$$$
>  <binder>
Cbz-YD(OMe)HQ-NH2 [Z-YD(OMe)HQ-NH2]

>  <property.measured>
% Inhibition of Gadd45β-MKK7 binding

>  <result>
3

$$$$

Values were extracted from patent US20120277164A1.
